- ASSAY_TEXT: Pharmacokinetics in mice
- Format: in vivo
- CONDITION_DETAILS: mouse, plasma, iv, 10 mg/kg, read-out: MRTinf_obs
RECORDED_METRIC: MRT inf
Entry format: amount then unit.

Ask: Query: MRT inf; subject: COc1ncc(-c2ccc3ncn(-c4ccc(OCCO)cc4)c3c2)cc1NS(=O)(=O)c1ccc(F)cc1F [DHW-221]
Result: 4.7 h

###

- ASSAY_TEXT: Pharmacokinetics in mice
- Assay type: in vivo
- CONDITION_DETAILS: mouse, plasma, po, 10 mg/kg
- Method: ^a Values are the average of three runs. Vehicle: DMSO:ethanol:saline=3:100:897. ^b Dose:10 mg/kg. T1/2, half-life; Cmax, maximum concentration; Tmax, time of maximum concentration; AUCall, area under the plasma concentration time curve.
RECORDED_METRIC: AUC (µg·h/mL)
Answer with a number only, understood to be in µg·h/mL.

Ask: Reported AUC for COc1ncc(-c2ccc3ncn(-c4ccc(OCCO)cc4)c3c2)cc1NS(=O)(=O)c1ccc(F)cc1F : what is it?
Result: 176
